tested.target: UniProt Q9Y5N1
protocol.summary: Antagonist activity at human histamine H3 receptor expressed in human SK-N-MC cells assessed as inhibition of (R)-alpha-methylhistamine-induced effect after 6 hrs by beta-galactosidase reporter gene assay
Type: functional, cell-based
result.type: pKb

molecule: c1ccc(CC(c2ccc(-c3ccc(CN4CCCCC4)cc3)cc2)N2CCCCC2)cc1 (racemic)
tested.target: UniProt Q9Y5N1
recorded.result: 8.3

molecule: CCCC[C@H](c1ccc(-c2ccc(CN3CCCCC3)cc2)cc1)N1CCCC[C@@H]1C
tested.target: UniProt Q9Y5N1
recorded.result: 8.91

molecule: c1cc(-c2ccc(CN3CCCCC3)cc2)ccc1CN1CCCCC1
tested.target: UniProt Q9Y5N1
recorded.result: 8.77

molecule: CCCC[C@@H](c1ccc(-c2ccc(CN3CCCCC3)cc2)cc1)N1CCC[C@@H]1C
tested.target: UniProt Q9Y5N1
recorded.result: 8.37

molecule: CCCC[C@@H](c1ccc(-c2ccc(CN3CCCCC3)cc2)cc1)N1CCCC[C@@H]1C
tested.target: UniProt Q9Y5N1
recorded.result: 8.94

molecule: CN(C)C(Cc1ccccc1)c1ccc(-c2ccc(CN3CCCCC3)cc2)cc1 (racemic)
tested.target: UniProt Q9Y5N1
recorded.result: 7.56

molecule: CCCC[C@H](c1ccc(-c2ccc(CN3CCCCC3)cc2)cc1)N1CCC[C@H]1C
tested.target: UniProt Q9Y5N1
recorded.result: 8.8

molecule: COCCC[C@@H](c1ccc(-c2ccc(CN3CCCCC3)cc2)cc1)N1CCC[C@@H]1C
tested.target: UniProt Q9Y5N1
recorded.result: 10

molecule: C[C@H]1CCCN1Cc1ccc(-c2ccc(CN3CCCCC3)cc2)cc1
tested.target: UniProt Q9Y5N1
recorded.result: 9.46

molecule: CCCCC(c1ccc(-c2ccc(CN3CCCCC3)cc2)cc1)N1CCCCC1 (racemic)
tested.target: UniProt Q9Y5N1
recorded.result: 8.81

molecule: C[C@H]1CCCN1[C@@H](CCCOc1ccccc1)c1ccc(-c2ccc(CN3CCCCC3)cc2)cc1
tested.target: UniProt Q9Y5N1
recorded.result: 9.15

molecule: COCCC[C@H](c1ccc(-c2ccc(CN3CCCCC3)cc2)cc1)N1CCC[C@@H]1C
tested.target: UniProt Q9Y5N1
recorded.result: 9.64

molecule: CCCC[C@H](c1ccc(-c2ccc(CN3CCCCC3)cc2)cc1)N1CCC[C@@H]1C
tested.target: UniProt Q9Y5N1
recorded.result: 8.81

molecule: CCCC[C@@H](c1ccc(-c2ccc(CN3CCCCC3)cc2)cc1)N1CCC[C@H]1C
tested.target: UniProt Q9Y5N1
recorded.result: 8.58

molecule: COc1ccc(OCCC[C@H](c2ccc(-c3ccc(CN4CCCCC4)cc3)cc2)N2CCC[C@@H]2C)cc1
tested.target: UniProt Q9Y5N1
recorded.result: 8.71

molecule: C[C@@H]1CCCN1Cc1ccc(-c2ccc(CN3CCCCC3)cc2)cc1
tested.target: UniProt Q9Y5N1
recorded.result: 9.16

molecule: COc1ccc(OCCC[C@@H](c2ccc(-c3ccc(CN4CCCCC4)cc3)cc2)N2CCC[C@@H]2C)cc1
tested.target: UniProt Q9Y5N1
recorded.result: 8.71

molecule: C[C@H]1CCCN1[C@H](CCCOc1ccccc1)c1ccc(-c2ccc(CN3CCCCC3)cc2)cc1
tested.target: UniProt Q9Y5N1
recorded.result: 8.48

molecule: C[C@@H]1CCCN1Cc1ccc(-c2ccc(C(Cc3ccccc3)N3CCCCC3)cc2)cc1 (mixture of isomers)
tested.target: UniProt Q9Y5N1
recorded.result: 8.87

###

// each record: one item and its Ki for Histamine H3 receptor (Rattus norvegicus, UniProt Q9QYN8)
result.type: Ki (nM)

compound: CCCC[C@@H](c1ccc(-c2ccc(CN3CCCCC3)cc2)cc1)N1CCC[C@@H]1C
unit.symbol: nM
Ki: 1.41

(A) CCCCC(c1ccc(-c2ccc(CN3CCCCC3)cc2)cc1)N1CCCCC1 (racemic)
(B) CCCCCc1ccc(-c2ccc(CN3CCCCC3)cc2)cc1
Thinking about recorded Ki values, which is higher, A or B ? When you have decided, please share the label of that item.
B
(B: 60300 nM, A: 4.27 nM)

###

The compounds below have reported pKi for Histamine H3 receptor (Homo sapiens).
pKi: −log10 of the molar value.
result.type: pKi

(P) CCCC[C@H](c1ccc(-c2ccc(CN3CCCCC3)cc2)cc1)N1CCC[C@H]1C
(Q) COc1ccc(OCCC[C@H](c2ccc(-c3ccc(CN4CCCCC4)cc3)cc2)N2CCC[C@@H]2C)cc1
(R) CCCCCc1ccc(-c2ccc(CN3CCCCC3)cc2)cc1
// ascending sort on recorded pKi Submit the labels in the order that the ranking request calls for.
R, P, Q

###

Histamine H3 receptor (Rattus norvegicus, UniProt Q9QYN8): reported Ki for various compounds.
Sequence (Q9QYN8 whole entry): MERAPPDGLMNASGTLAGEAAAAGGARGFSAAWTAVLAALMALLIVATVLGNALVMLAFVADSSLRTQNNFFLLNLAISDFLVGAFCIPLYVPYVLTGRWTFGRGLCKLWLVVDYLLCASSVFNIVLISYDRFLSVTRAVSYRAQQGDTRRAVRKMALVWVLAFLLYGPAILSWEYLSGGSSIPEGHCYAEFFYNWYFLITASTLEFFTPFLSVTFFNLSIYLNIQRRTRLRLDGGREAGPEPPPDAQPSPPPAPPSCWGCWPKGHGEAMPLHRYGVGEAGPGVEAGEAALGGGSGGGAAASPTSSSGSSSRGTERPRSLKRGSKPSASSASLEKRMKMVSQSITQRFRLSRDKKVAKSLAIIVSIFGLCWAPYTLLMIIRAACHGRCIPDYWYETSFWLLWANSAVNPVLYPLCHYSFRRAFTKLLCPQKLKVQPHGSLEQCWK
result.type: Ki (nM)

compound: C[C@H]1CCCN1[C@H](CCCOc1ccccc1)c1ccc(-c2ccc(CN3CCCCC3)cc2)cc1
recorded.result: 6.61
//
compound: COc1ccc(OCCC[C@H](c2ccc(-c3ccc(CN4CCCCC4)cc3)cc2)N2CCC[C@@H]2C)cc1
recorded.result: 6.61
//
compound: C[C@H]1CCCN1[C@@H](CCCOc1ccccc1)c1ccc(-c2ccc(CN3CCCCC3)cc2)cc1
recorded.result: 4.68
//
compound: c1ccc(CC(c2ccc(-c3ccc(CN4CCCCC4)cc3)cc2)N2CCCCC2)cc1 (racemic)
recorded.result: 112
//
compound: CN(C)C(Cc1ccccc1)c1ccc(-c2ccc(CN3CCCCC3)cc2)cc1 (racemic)
recorded.result: 30.2
//
compound: CCCC[C@@H](c1ccc(-c2ccc(CN3CCCCC3)cc2)cc1)N1CCC[C@H]1C
recorded.result: 16.2
//
compound: C[C@@H]1CCCN1Cc1ccc(-c2ccc(C(Cc3ccccc3)N3CCCCC3)cc2)cc1 (mixture of isomers)
recorded.result: 29.5

(P) COCCC[C@@H](c1ccc(-c2ccc(CN3CCCCC3)cc2)cc1)N1CCC[C@@H]1C
(Q) C[C@@H]1CCCN1Cc1ccc(-c2ccc(CN3CCCCC3)cc2)cc1
Param pair: P , Q . Output: the one whose Ki is numerically greater. Pick one and reply with its label.
Q
(Q: 3.55 nM, P: 1.78 nM)

###

tested.target: Histamine H2 receptor (Cavia porcellus)
protocol.summary: Antagonist activity at histamine H2 receptor in guinea pig spontaneously beating isolated atria assessed as changes in rate of spontaneous beating at 1 uM by cardiotachograph analysis
Calls of active or inactive are those of the source. The rule behind the calls is not given here.
result.type: Activity

Example cases with answers are listed next.
molecule: CCCC[C@H](c1ccc(-c2ccc(CN3CCCCC3)cc2)cc1)N1CCC[C@@H]1C
result.type: Activity
recorded.result: inactive
--
molecule: CCCCC(c1ccc(-c2ccc(C)cc2)cc1)N1CCCCC1 (racemic)
result.type: Activity
recorded.result: inactive
--
molecule: CCCCC(c1ccc(-c2ccc(CN3CCCCC3)cc2)cc1)N1CCCCC1 (racemic)
result.type: Activity
recorded.result: inactive
--
molecule: CCCC[C@@H](c1ccc(-c2ccc(CN3CCCCC3)cc2)cc1)N1CCCC[C@@H]1C
result.type: Activity
recorded.result: inactive
--
molecule: C[C@@H]1CCCN1Cc1ccc(-c2ccc(CN3CCCCC3)cc2)cc1
result.type: Activity
recorded.result: inactive

Activity recorded for this molecule, `C[C@H]1CCCN1Cc1ccc(-c2ccc(CN3CCCCC3)cc2)cc1` , is inactive

Kindly note the recorded Activity for `COCCC[C@@H](c1ccc(-c2ccc(CN3CCCCC3)cc2)cc1)N1CCC[C@@H]1C` , which is inactive

Documented Activity of `CCCC[C@H](c1ccc(-c2ccc(CN3CCCCC3)cc2)cc1)N1CCCC[C@@H]1C` : inactive

Just so you know, measured Activity for c1ccc(CC(c2ccc(-c3ccc(CN4CCCCC4)cc3)cc2)N2CCCCC2)cc1 (racemic) came out at inactive

Lookup result for CN(C)C(Cc1ccccc1)c1ccc(-c2ccc(CN3CCCCC3)cc2)cc1 (racemic) ; measured Activity: inactive
